// data source = patent US12037324B2

# targetSystem: AGTR1 (Homo sapiens)
# Construct: host or cells: Pathunter CHO-K1 AGTR1 β-arrestin cell line (CHO-K1)
# Sequence (P30556 1-359): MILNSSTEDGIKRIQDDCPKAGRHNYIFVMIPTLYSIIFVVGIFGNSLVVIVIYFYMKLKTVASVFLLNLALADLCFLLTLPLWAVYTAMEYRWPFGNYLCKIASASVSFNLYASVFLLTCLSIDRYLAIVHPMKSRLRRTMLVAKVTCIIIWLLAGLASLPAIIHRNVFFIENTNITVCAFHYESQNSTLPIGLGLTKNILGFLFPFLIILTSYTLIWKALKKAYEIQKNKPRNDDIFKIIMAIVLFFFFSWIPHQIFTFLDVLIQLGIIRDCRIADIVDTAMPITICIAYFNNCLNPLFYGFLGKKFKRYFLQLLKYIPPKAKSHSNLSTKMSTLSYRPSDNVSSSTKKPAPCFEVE
# assayMethodText: DiscoveRx IP1 accumulation assay (HTRF), agonist mode, Pathunter CHO-K1 AGTR1 β-arrestin cell line
# Format: cell-based
# reportedConditions: read-out: IP-1 EC50
measurementType: pEC50
Answers are plain numbers, as −log10 of the molar value.

| smilesRepresentation | measuredNumber |
| --- | --- |
| CC1=NC2(CCCC2)C(=O)N1Cc1ccc(-c2cc(-c3ccccc3)ccc2-c2nn[nH]n2)cc1 | 6.97 |
| CCc1nc2c(C)cc(C)nc2n1Cc1ccc(-c2cc(Oc3ccccc3)ccc2-c2nnn[nH]2)cc1 | 7.18 |
| CCc1nc2c(C)cc(C)nc2n1Cc1ccc(-c2cc(-c3cccn3C)ccc2-c2nn[nH]n2)cc1 | 7.46 |
| CCc1nc2c(C)cc(C)nc2n1Cc1ccc(-c2cc(C3=NCCC3)ccc2-c2nn[nH]n2)cc1 | 6.69 |

Proceed to the following item.
Exercise: What value of pEC50 has been recorded for this entry: CCc1nc2c(C)cc(C)nc2n1Cc1ccc(-c2cc(-c3ccccc3OC)ccc2-c2nn[nH]n2)cc1
Key: 7.62

----------
# targetSystem: AGTR1 (Homo sapiens)
# Construct: host or cells: Pathunter CHO-K1 AGTR1 β-arrestin cell line (CHO-K1)
# assayMethodText: DiscoveRx β-arrestin2 recruitment assay (enzyme complementation, Pathunter CHO-K1 AGTR1 β-arrestin cell line)
# Type: cell-based
# reportedConditions: DiscoveRx β-arrestin2 recruitment
Exercise: for every item that follows, state its recorded pEC50.
Give bare numbers, as −log10 of the molar value.

Consider the reported pEC50 for these compounds:
| compound | targetSystem | measurementType | measuredNumber |
| --- | --- | --- | --- |
| CCc1nc2c(C)cc(C)nc2n1Cc1ccc(-c2cc(-c3ccccc3O)ccc2-c2nn[nH]n2)cc1 [Example 10] | AGTR1 (Homo sapiens) | pEC50 | 8.85 |
| CCCCC1=NC2(CCCC2)C(=O)N1Cc1ccc(-c2cc(N3CCC[C@H](C)C3)ccc2-c2nn[nH]n2)cc1 [Example 104] | AGTR1 (Homo sapiens) | pEC50 | 6.94 |
| CCc1nc2c(C)cc(C)nc2n1Cc1ccc(-c2cc(-c3cc(C)cc(C)n3)ccc2C(=O)O)cc1 [Example 194] | AGTR1 (Homo sapiens) | pEC50 | 7.20 |
| CCOc1nc2cccc(C(=O)O)c2n1Cc1ccc(-c2cc(-c3cnc(OC)c(C)c3)ccc2-c2nn[nH]n2)cc1 [Example 328] | AGTR1 (Homo sapiens) | pEC50 | 6.10 |
| CCCCC(=O)N(Cc1ccc(-c2cc(-c3ccccc3)ccc2-c2nn[nH]n2)cc1)C1(C(=O)O)CCC1 [Example 270] | AGTR1 (Homo sapiens) | pEC50 | 5.18 |
| CCc1nc2c(C)cc(C)nc2n1Cc1ccc(-c2cc(N3CCCC3=O)ccc2-c2nn[nH]n2)cc1 [Example 28] | AGTR1 (Homo sapiens) | pEC50 | 6.49 |

Exercise: What value of pEC50 has been recorded for this entry: CC1=NC2(CCCC2)C(=O)N1Cc1ccc(-c2cc(-c3ccccc3)ccc2-c2nn[nH]n2)cc1 [Example 110]
Key: 7.44
